Assay System: T1, GST-APXL-1 PDZ domain 1 (Homo sapiens (Human)), Q13796
T1 chain: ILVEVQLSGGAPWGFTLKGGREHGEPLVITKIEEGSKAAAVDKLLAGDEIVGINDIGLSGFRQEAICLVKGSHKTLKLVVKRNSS
Assay Details: G assay titration, PDZ 0.5 ug/ml
Endpoint Name: pKd
Worth noting: pKd values are minus log10 of concentrations stated in mol/L.

Req: Entry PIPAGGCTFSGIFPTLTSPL (modifications not checked) [KIA 1481] has what pKd?
Resp: 6.22
